Recorded viscosity, one value per entry.
- MEASUREMENT DESCRIPTION: xn = mol fraction of the nth substance listed
- TEST PARAMETERS: 298.15 K; 101 kPa; x2 = 0.05
Just the number please, in mPa·s, no unit attached.

Check out these entries, answers already filled in.
compound="CCCCCCCCCCO + CCCCO" unit_abbrev=mPa·s experimental_value=10.62
compound="CCCCCCCCCCO + CCCO" unit_abbrev=mPa·s experimental_value=10.52
compound="CCCCCCCCCCO + CO" unit_abbrev=mPa·s experimental_value=10.38

// moving on: another record for viscosity
Form field viscosity, entry CCCCCCCCCCO + CCO : 10.42
